Provenance of the data: ChEMBL document CHEMBL3988442

Below, each of the compounds is paired with its reported Percent Effect value.
Test system: Mycobacterium tuberculosis
Experiment: Cornell M. t heat shock assay; also: in the data most compounds retested in dose-response had high values
Assay type: functional, organism-based
Parameters: dose or concentration left out as unconfirmed
Among all 69,000 compounds or so, about 950 (1.4%) showed an effect of 50% or more. The entries come from a sample that favours strong results as a whole.
Give the quantity in %, number only.

Example compounds with recorded Percent Effect:
- COMPOUND: "O=C(O)C(F)(F)F.O=C(O)c1c(-c2cccnc2)ncc2c1CCN(CC1CCOC1)C2 (stereo not given)"
  Percent Effect (%): -9.377
- COMPOUND: "Cc1ccsc1CN(Cc1cccnc1)C1CC(C)(C)NC(C)(C)C1.O=C(O)CC(O)(CC(=O)O)C(=O)O"
  Percent Effect (%): -32.2

Percent Effect measured on "Cc1ccc(CN2CCC(O)(Cn3ccc4ncccc43)CC2)o1.Cl" = -13.38

So for "Cl.Cl.O=C(NCc1cncc2c1CCN(Cc1cccs1)C2)C1CC1" , the logged Percent Effect turned out to be 3.264

For record CCc1cnc(CN(C(C)=O)C2CCN(CCc3ccccn3)C2)o1 (stereo not given) the listed Percent Effect is -12.32

Percent Effect for CC1CCN(CCCNC(=O)NC(C)c2nncn2C)CC1 (stereo not given) is 68.75

The recorded Percent Effect for CC(NC(=O)NCCCN1CCCCCC1)c1nncn1C (stereo not given) is 12.17

Lab book: Percent Effect of CC1c2ncc(CNC(=O)C3CC3)n2CCN1Cc1cccnc1.O=C(O)C(F)(F)F.O=C(O)C(F)(F)F (stereo not given) noted as -10.62

Value of Percent Effect reported for the compound OCC1(CC2CCCCO2)CCN(c2cnc3ccccc3n2)CC1 (stereo not given) is 103.4

Record Cc1cnc(CN(C)C2CCN(CC(=O)Nc3nccs3)C2)o1 (stereo not given) . Reported Percent Effect: 66.08

----------
System: Mycobacterium tuberculosis
Assay: Cornell M. t heat shock assay; also: in the data most compounds retested in dose-response had high values
Assay type: functional, organism-based
Set-up: dose or concentration left out as unconfirmed
The campaign covered roughly 69,000 compounds. About 950 (1.4%) showed an effect of 50% or more. This excerpt belongs to a sample that is enriched for strong results.
Below, each entry is listed alongside its reported Percent Effect.

Here's what some known entries look like.
- COMPOUND: "Cc1ccc(N2CCO[C@H]3CN(Cc4nccs4)C[C@H]32)nn1.O=C(O)C(F)(F)F.O=C(O)C(F)(F)F"
  TARGET_ENTITY: "Mycobacterium tuberculosis"
  Percent Effect: "-20.26%"
- COMPOUND: "CN(C)CCN1CCC2(CCN(C(=O)c3cccc(F)c3)CC2)C1=O.O=C(O)C(F)(F)F"
  TARGET_ENTITY: "Mycobacterium tuberculosis"
  Percent Effect: "-26.99%"
- COMPOUND: "O=C(O)C(F)(F)F.O=C(O)C(F)(F)F.c1ccc(OC[C@]23COC[C@H]2CN(C2CCOCC2)C3)nc1"
  TARGET_ENTITY: "Mycobacterium tuberculosis"
  Percent Effect: "-7.98%"
- COMPOUND: "CCn1ccc(C(=O)N2CCCC2c2nnc(-c3scnc3C)o2)n1 (stereo not given)"
  TARGET_ENTITY: "Mycobacterium tuberculosis"
  Percent Effect: "-2.34%"

Please examine the following record next.
Sample "COCCN1CCCn2c(nc(CNC(=O)COC)cc2=O)C1.O=C(O)C(F)(F)F" , system: Mycobacterium tuberculosis. Its Percent Effect is 37.74%
